STUDY_TARGET: GluN1/GluN2A (Rattus norvegicus; Mus musculus, UniProt P35436+P35439)
Construct: full-length wild-type subunits in pNKS2, cRNA in Xenopus laevis oocytes; heterotetramer (rat GluN1 with mouse GluN2A)
Sequence (P35436 23-1464, other chains not shown): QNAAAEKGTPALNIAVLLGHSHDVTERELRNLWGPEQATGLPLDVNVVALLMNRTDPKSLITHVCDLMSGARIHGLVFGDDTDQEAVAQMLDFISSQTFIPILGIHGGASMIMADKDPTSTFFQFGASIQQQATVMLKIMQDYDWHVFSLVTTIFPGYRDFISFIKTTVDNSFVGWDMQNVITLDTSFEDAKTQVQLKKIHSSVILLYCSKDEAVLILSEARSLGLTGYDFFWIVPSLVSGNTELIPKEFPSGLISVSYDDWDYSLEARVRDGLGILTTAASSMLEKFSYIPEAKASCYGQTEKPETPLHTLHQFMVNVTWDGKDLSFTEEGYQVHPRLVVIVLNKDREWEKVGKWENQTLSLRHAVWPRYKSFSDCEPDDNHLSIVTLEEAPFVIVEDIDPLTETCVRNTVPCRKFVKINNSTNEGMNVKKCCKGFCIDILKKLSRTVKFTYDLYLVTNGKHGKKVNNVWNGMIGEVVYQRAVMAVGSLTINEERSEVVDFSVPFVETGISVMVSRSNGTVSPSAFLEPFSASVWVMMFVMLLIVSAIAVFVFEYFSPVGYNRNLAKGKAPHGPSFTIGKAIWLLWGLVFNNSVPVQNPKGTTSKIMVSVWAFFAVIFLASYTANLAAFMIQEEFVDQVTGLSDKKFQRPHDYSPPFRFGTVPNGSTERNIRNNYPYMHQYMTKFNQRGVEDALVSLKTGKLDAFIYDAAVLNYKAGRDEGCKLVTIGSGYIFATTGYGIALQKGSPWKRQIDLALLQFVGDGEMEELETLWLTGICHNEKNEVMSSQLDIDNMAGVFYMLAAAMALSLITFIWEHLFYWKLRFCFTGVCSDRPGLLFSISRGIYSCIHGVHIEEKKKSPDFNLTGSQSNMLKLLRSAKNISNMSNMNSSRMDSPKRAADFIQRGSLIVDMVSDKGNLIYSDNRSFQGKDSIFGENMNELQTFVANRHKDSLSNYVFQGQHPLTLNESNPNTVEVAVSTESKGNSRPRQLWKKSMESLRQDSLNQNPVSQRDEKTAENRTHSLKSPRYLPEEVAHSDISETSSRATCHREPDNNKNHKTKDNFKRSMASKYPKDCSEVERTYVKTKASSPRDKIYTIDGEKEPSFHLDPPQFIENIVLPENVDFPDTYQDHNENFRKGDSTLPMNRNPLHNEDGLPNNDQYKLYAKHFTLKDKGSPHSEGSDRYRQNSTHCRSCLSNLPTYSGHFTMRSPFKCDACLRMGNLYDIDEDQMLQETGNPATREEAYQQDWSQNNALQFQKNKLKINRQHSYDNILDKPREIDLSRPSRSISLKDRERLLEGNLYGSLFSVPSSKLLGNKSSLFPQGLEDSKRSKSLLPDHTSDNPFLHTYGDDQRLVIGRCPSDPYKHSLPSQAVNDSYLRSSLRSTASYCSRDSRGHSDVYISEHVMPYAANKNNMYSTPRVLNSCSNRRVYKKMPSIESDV
EXPERIMENTAL_PROTOCOL: two-electrode voltage clamp, Xenopus oocytes, -70 mV
Where a name gives a salt, the structure may show the parent alone.
READOUT_LABEL: EC50 (µM)
Supply the numeric figure in µM, leaving out any unit text.

Look at this molecule and give its reported EC50. CC(=O)[C@H]1CC[C@H]2[C@@H]3CC=C4C[C@@H](OS(=O)(=O)O)CC[C@]4(C)[C@H]3CC[C@]12C [pregnenolone sulfate, 20-oxo-5-pregnen-3β-yl sulfate]
12.4
